Recorded % Biacore binding (IL-17F-NB)-IL-17RC values for a group of binders are listed next.
target under test: T1, human IL-17F (human, UniProt Q96PD4 31-163)
T1 construct: GenBank AF384857, expressed in Hek293 as 6-His C-terminal tagged protein; also called hIL-17F; IL-17F-6HIS
T1 sequence: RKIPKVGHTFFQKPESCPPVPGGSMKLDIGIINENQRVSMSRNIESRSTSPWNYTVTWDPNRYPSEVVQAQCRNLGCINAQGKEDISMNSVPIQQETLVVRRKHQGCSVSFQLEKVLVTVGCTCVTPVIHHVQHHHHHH
test protocol: SPR, IL-17F-Nanobody complex over captured IL-17RC
recorded metric: % Biacore binding (IL-17F-NB)-IL-17RC (%)

binder: 13B03 (VHH, Class 4; also called IL17MS13B03) VHH: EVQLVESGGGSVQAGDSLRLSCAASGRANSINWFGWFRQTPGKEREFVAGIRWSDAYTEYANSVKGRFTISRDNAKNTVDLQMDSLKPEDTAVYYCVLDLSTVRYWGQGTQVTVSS
recorded metric: % Biacore binding (IL-17F-NB)-IL-17RC
val: 15.7
//
binder: 16A04 (VHH, Class 3; also called IL17MS16A04) VHH: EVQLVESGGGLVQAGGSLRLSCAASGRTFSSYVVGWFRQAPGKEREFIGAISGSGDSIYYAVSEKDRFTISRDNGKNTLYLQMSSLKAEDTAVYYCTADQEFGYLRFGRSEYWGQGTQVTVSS
recorded metric: % Biacore binding (IL-17F-NB)-IL-17RC
val: 4.84
//
binder: 13E02 (VHH, Class 4; also called IL17MS13E02) VHH: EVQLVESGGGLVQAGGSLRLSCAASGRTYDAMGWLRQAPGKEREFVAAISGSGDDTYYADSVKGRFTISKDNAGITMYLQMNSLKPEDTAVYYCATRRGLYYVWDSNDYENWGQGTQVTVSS
recorded metric: % Biacore binding (IL-17F-NB)-IL-17RC
val: 7.17
//
binder: 17C01 (VHH, Class 4) VHH: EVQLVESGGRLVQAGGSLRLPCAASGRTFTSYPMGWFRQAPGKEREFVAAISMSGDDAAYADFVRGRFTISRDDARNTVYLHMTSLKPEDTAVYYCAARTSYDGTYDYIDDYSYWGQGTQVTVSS
recorded metric: % Biacore binding (IL-17F-NB)-IL-17RC
val: 32.5
